B1: SEC22B (parent)
chain: FPKKLAFAYLEDLHSEFDEQHGKK

variants of: B1; assay: protein stability index of a GFP-peptide fusion (GPS, HEK-293T) (PSI 1-6); higher = more stable; conditions: c terminus: a fixed tail appended;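 further: lentivirally expressed fusions sorted by FACS into six bins by GFP to DsRed ratio, PSI derived from sequencing read proportions per bin multiplied by bin number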
metric: protein stability index
Give bare numbers.

Provide reported protein stability index for each item, in the same order as listed.
1. H14W
2. E11G

Response line:
1: 2.06; 2: 2.08

Go through the items and report each one's protein stability index.
1. L10V
2. L13R

Response line:
1: 2.11; 2: 2.79

Provide each entry's protein stability index from the list below.
1. A6H
2. E16A
3. F17C
4. F17A
5. L10T
6. E19T
7. D18V

Response line:
1: 2.91; 2: 2.4; 3: 2.87; 4: 2.68; 5: 3.16; 6: 2.42; 7: 2.45

Provenance of the data: the supplement of paper PMC10567573
